experiment: Rat pharmacokinetics; settings: male, Sprague Dawley, rat, in vivo, po, 30 mg/kg
measurement-type: AUC(0-inf) (ng·h/mL)
Only the number, expressed in ng·h/mL, is required.

Need AUC(0-inf), item CNC(=O)c1ccc(N2C(=S)N(c3ccc(C#N)c(C(F)(F)F)c3)C(=O)[C@]23CCOC3)cc1F [ONC1-13B]
95000

----------
In this section, each of the molecules is paired with its reported concentration at 120 min.
experiment: Brain and prostate distribution after single IV in rats; settings: rat, in vivo, 2 mg/kg, plasma, 120 min, single IV 2 mg/kg
Only the number, expressed in ng/mL, is required.

| molecule | concentration at 120 min [ng/mL] |
| --- | --- |
| CNC(=O)c1ccc(N2C(=S)N(c3ccc(C#N)c(C(F)(F)F)c3)C(=O)C2(C)C)cc1F | 377 |

Note: attention shifts to another entry.
Need concentration at 120 min, item CNC(=O)c1ccc(N2C(=S)N(c3ccc(C#N)c(C(F)(F)F)c3)C(=O)[C@]23CCOC3)cc1F [ONC1-13B]
522

----------
test: Brain and prostate distribution after single IV in rats; conditions: rat, in vivo, 1 mg/kg
measurement-type: Kp at 30 min
Note: the reply should be a number with no unit written.

Need Kp at 30 min, item CNC(=O)c1ccc(N2C(=S)N(c3cnc(C#N)c(C(F)(F)F)c3)C(=O)C23CCC3)cc1F [ARN-509]
1.94

----------
assay: Brain and prostate distribution after single IV in rats; details: rat, in vivo, 1 mg/kg, brain, 30 min, single IV 1 mg/kg
measurement-type: concentration at 30 min (ng/g)
Only the number, expressed in ng/g, is required.

Need concentration at 30 min, item "CNC(=O)c1ccc(N2C(=S)N(c3cnc(C#N)c(C(F)(F)F)c3)C(=O)C23CCC3)cc1F"
241

----------
test: Brain and prostate distribution after single IV in rats; conditions: rat, in vivo, 2 mg/kg
measurement-type: Kp

Need Kp, item CNC(=O)c1ccc(N2C(=S)N(c3ccc(C#N)c(C(F)(F)F)c3)C(=O)[C@]23CCOC3)cc1F [ONC1-13B]
1.2 to 1.6

----------
assay: Rat pharmacokinetics; conditions: male, Sprague Dawley, rat, in vivo, po, 30 mg/kg
measurement-type: k el (s⁻¹)
Only the number, expressed in s⁻¹, is required.

Need k el, item CNC(=O)c1ccc(N2C(=S)N(c3ccc(C#N)c(C(F)(F)F)c3)C(=O)[C@]23CCOC3)cc1F [ONC1-13B]
5.28e-05

----------
assay: Rat pharmacokinetics; details: male, Sprague Dawley, rat, in vivo, po, 30 mg/kg
measurement-type: Tmax

Need Tmax, item CNC(=O)c1ccc(N2C(=S)N(c3ccc(C#N)c(C(F)(F)F)c3)C(=O)[C@]23CCOC3)cc1F [ONC1-13B]
4 h

----------
assay: Drug concentration in plasma and xenograft tumor after 21-day dosing; settings: male, CB17-SCID, mouse, in vivo, 20 mg/kg
measurement-type: Kp at 24 h
Note: the reply should be a number with no unit written.

Need Kp at 24 h, item CNC(=O)c1ccc(N2C(=S)N(c3ccc(C#N)c(C(F)(F)F)c3)C(=O)[C@]23CCOC3)cc1F [ONC1-13B]
0.78

----------
assay: Rat pharmacokinetics; conditions: male, Sprague Dawley, rat, in vivo, po, 300 mg/kg
measurement-type: Tmax

Need Tmax, item CNC(=O)c1ccc(N2C(=S)N(c3ccc(C#N)c(C(F)(F)F)c3)C(=O)[C@]23CCOC3)cc1F [ONC1-13B]
4 h
